# assayedSystem: human KDR protein in HEK-293 cells (Homo sapiens (Human))
# method: KDR Cell Assay (phospho-KDR in HEK-293 cells expressing inducible KDR)
# Assay type: cell-based
# conditionContext: pKDR Cell HEK 10% FBS IC50, HEK-293 cells expressing inducible KDR, VEGF stimulated, 10% FBS
quantityKind: pIC50
Scale: pIC50 equals -log10([C]), with [C] in mol/L.

# compound, assayedSystem, pIC50
measured = [
    ("C[C@H](O)[C@@H](C)N1CCN(c2ccc(-c3cc(-c4cnn(C)c4)cn4ncc(C#N)c34)cn2)CC1 (racemic) [Example 165]", "human KDR protein in HEK-293 cells (Homo sapiens (Human))", 5.69),
]

Sure, the documented pIC50 for COCCN(C)C(=O)N1CCN(c2ccc(-c3cc(-c4cnn(C)c4)cn4ncc(C#N)c34)cn2)CC1 [Example 130, 2,2,2-trifluoroacetate] is 5.65

* * *

# assayedSystem: human KDR protein in HEK-293 cells (Homo sapiens (Human), UniProt P35968)
# Sequence (P35968 20-1356): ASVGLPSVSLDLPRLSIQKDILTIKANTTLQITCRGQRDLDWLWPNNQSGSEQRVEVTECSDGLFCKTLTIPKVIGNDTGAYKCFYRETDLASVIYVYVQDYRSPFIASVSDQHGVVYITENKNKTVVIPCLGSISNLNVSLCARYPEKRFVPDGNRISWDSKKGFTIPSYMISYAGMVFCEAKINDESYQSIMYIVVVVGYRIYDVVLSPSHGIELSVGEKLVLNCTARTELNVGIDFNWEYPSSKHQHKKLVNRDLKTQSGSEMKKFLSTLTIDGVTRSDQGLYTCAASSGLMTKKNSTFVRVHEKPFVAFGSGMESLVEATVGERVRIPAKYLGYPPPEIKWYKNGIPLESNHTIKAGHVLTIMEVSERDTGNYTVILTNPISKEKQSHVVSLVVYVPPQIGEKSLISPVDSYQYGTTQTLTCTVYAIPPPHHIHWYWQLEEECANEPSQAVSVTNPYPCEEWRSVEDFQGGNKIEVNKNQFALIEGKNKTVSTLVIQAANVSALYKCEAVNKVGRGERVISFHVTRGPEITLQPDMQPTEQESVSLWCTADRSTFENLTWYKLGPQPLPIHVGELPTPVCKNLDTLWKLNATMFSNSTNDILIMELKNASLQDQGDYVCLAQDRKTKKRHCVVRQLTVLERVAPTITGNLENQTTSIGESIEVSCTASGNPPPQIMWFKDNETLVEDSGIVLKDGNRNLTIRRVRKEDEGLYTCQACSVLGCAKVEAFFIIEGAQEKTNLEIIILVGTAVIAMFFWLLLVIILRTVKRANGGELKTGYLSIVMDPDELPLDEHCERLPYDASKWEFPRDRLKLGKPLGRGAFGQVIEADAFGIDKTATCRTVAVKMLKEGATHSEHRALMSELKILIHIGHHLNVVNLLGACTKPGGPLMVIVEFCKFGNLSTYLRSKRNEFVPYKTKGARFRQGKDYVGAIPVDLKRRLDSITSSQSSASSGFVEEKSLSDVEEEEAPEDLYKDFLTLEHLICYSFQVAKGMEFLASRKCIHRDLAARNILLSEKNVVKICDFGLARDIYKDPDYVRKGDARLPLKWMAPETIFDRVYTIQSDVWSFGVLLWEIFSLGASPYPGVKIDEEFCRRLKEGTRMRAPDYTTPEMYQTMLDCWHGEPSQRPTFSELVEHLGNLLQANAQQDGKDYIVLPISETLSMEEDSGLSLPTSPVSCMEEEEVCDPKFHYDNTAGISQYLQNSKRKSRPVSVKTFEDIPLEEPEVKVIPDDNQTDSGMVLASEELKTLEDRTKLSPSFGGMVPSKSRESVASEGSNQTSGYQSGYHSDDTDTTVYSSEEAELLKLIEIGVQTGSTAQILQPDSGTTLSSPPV
# method: KDR Cell Assay (phospho-KDR in HEK-293 cells expressing inducible KDR)
# Type: cell-based
# conditionContext: pKDR Cell HEK 10% FBS IC50, HEK-293 cells expressing inducible KDR, VEGF stimulated
Structures can show the parent of a compound that is named as a salt.
This listing pairs compounds with measured IC50.
# value in µM; strip the unit string

Would you please look over these solved cases?
# compound, measured
data = [
    ("CCN(CC)C(=O)N1CC2(CCN(c3ccc(-c4cc(-c5cnn(C)c5)cn5ncc(C#N)c45)cn3)CC2)C1", 0.437),
    ("CO[C@H]1CCN(C(=O)N2CCN(c3ccc(-c4cc(-c5cnn(C)c5)cn5ncc(Cl)c45)cn3)CC2)C1", 1.68),
    ("N#Cc1cnn2cc(-c3cnn(C4CNC4)c3)cc(-c3ccc(N4CCN(Cc5ccccc5)CC4)nc3)c12 [Example 595, dihydrochloride]", 0.217),
    ("Cn1cc(-c2cc(-c3ccc(N4CCC5(CCN(C(=O)OC(C)(C)C)CC5)CC4)nc3)c3c(C#N)cnn3c2)cn1", 1.05),
]

Sure, the documented IC50 for C[C@H](CO)Cn1cc(-c2cc(-c3ccc(N4CCN(Cc5ccccc5)CC4)nc3)c3c(C#N)cnn3c2)cn1 is 0.154

* * *

This listing pairs compounds with measured IC50.
# assayedSystem: human KDR protein in HEK-293 cells (Homo sapiens (Human))
# method: KDR Cell Assay (phospho-KDR in HEK-293 cells expressing inducible KDR)
# Type: cell-based
# conditionContext: pKDR Cell HEK 10% FBS IC50, HEK-293 cells expressing inducible KDR, VEGF stimulated, 10% FBS
# value in nM; strip the unit string

# compound, IC50 / nM
rows = [
    ("Cn1cc(-c2cc(-c3ccc(N4[C@@H]5CC[C@H]4C[C@@H](NC(=O)OC(C)(C)C)C5)nc3)c3c(C#N)cnn3c2)cn1", 242),
    ("COC(CNC(=O)C1CCN(c2ccc(-c3cc(-c4cnn(C)c4)cn4ncc(C#N)c34)cn2)CC1)C(F)(F)F (stereo not drawn)", 1510),
    ("Cn1cc(-c2cc(-c3ccc(N4CCN(C(=O)C(CO)c5ccccc5)CC4)nc3)c3c(C#N)cnn3c2)cn1 (stereo not drawn)", 435),
    ("Cn1cc(-c2cc(-c3ccc(N4CCN(C(=O)C[C@@H](O)c5ccccc5)CC4)nc3)c3c(C#N)cnn3c2)cn1", 115),
    ("CC(C)[C@H](O)C(=O)N1CCN(c2ccc(-c3cc(-c4cnn(C)c4)cn4ncc(C#N)c34)cn2)CC1", 1480),
]

Sure, the documented IC50 for Cn1cc(-c2cc(-c3ccc(N4CCN(C(=O)C5(c6cccc(Cl)c6)CC5)CC4)nc3)c3c(C#N)cnn3c2)cn1 [Example 356, 2,2,2-trifluoroacetate] is 126
